- Tested on: ILM model substrate (silk granules)
- protocolConditions: 0.04 mg/mL in PBS pH 7.4
attributeMeasured: Ratio λmax with MS and reference 588 nm (%)

Retrieve Ratio λmax with MS and reference 588 nm measured for CCCCCCCCCC[N+](C)(C)CCCNc1ccc(NCCC[N+](C)(C)CCCCCCCCCC)c2c1C(=O)c1ccccc1C2=O [7c] and print it. 4

(a) CCCCCCCC[N+](C)(C)CCCNc1ccc(NCCC[N+](C)(C)CCCCCCCC)c2c1C(=O)c1ccccc1C2=O [7b]
(b) CCCCCCCCCCCC[N+](C)(C)CCCNc1ccc(NCCC[N+](C)(C)CCCCCCCCCCCC)c2c1C(=O)c1ccccc1C2=O [7d]
(c) CCCC[N+](C)(C)CCCNc1ccc(NCCC[N+](C)(C)CCCC)c2c1C(=O)c1ccccc1C2=O [7a]
Arrange items by their Ratio λmax with MS and reference 588 nm values in increasing order. Give the labels in the order specified. b, a, c
(b: 3%, a: 8%, c: 57%)

* * *

- Tested on: ILM model substrate (silk granules)
- protocolConditions: 0.08 mg/mL in PBS pH 7.4; 632 nm (7a), 634 nm (7b, 7d), 635 nm (7c)
attributeMeasured: Ratio λmax with MS and reference 632-635 nm (%)

Examples with answers:
Retrieve Ratio λmax with MS and reference 632-635 nm measured for `CCCCCCCCCCCC[N+](C)(C)CCCNc1ccc(NCCC[N+](C)(C)CCCCCCCCCCCC)c2c1C(=O)c1ccccc1C2=O` and print it. 2

Retrieve Ratio λmax with MS and reference 632-635 nm measured for `CCCCCCCCCC[N+](C)(C)CCCNc1ccc(NCCC[N+](C)(C)CCCCCCCCCC)c2c1C(=O)c1ccccc1C2=O` and print it. 10

(A) CCCCCCCC[N+](C)(C)CCCNc1ccc(NCCC[N+](C)(C)CCCCCCCC)c2c1C(=O)c1ccccc1C2=O
(B) CCCC[N+](C)(C)CCCNc1ccc(NCCC[N+](C)(C)CCCC)c2c1C(=O)c1ccccc1C2=O
Quick check, higher Ratio λmax with MS and reference 632-635 nm between A and B ? State your choice using its label. B

* * *

- Tested on: ILM model substrate (silk granules)
- protocolConditions: 0.16 mg/mL in PBS pH 7.4; 632 nm (7a), 634 nm (7b, 7d), 635 nm (7c)
attributeMeasured: Ratio λmax with MS and reference 632-635 nm (%)

(I) CCCCCCCCCCCC[N+](C)(C)CCCNc1ccc(NCCC[N+](C)(C)CCCCCCCCCCCC)c2c1C(=O)c1ccccc1C2=O
(II) CCCCCCCC[N+](C)(C)CCCNc1ccc(NCCC[N+](C)(C)CCCCCCCC)c2c1C(=O)c1ccccc1C2=O
(III) CCCC[N+](C)(C)CCCNc1ccc(NCCC[N+](C)(C)CCCC)c2c1C(=O)c1ccccc1C2=O
Reorder: Ratio λmax with MS and reference 632-635 nm, max to min. Give the labels in the order specified. III, II, I

* * *

- Tested on: ILM model substrate (silk granules)
- protocolConditions: 0.02 mg/mL in PBS pH 7.4
attributeMeasured: Ratio λmax with MS and reference 588 nm (%)

Retrieve Ratio λmax with MS and reference 588 nm measured for `CCCCCCCCCC[N+](C)(C)CCCNc1ccc(NCCC[N+](C)(C)CCCCCCCCCC)c2c1C(=O)c1ccccc1C2=O` and print it. 7

Retrieve Ratio λmax with MS and reference 588 nm measured for `CCCC[N+](C)(C)CCCNc1ccc(NCCC[N+](C)(C)CCCC)c2c1C(=O)c1ccccc1C2=O` and print it. 54

(I) CCCCCCCC[N+](C)(C)CCCNc1ccc(NCCC[N+](C)(C)CCCCCCCC)c2c1C(=O)c1ccccc1C2=O
(II) CCCCCCCCCCCC[N+](C)(C)CCCNc1ccc(NCCC[N+](C)(C)CCCCCCCCCCCC)c2c1C(=O)c1ccccc1C2=O
Quick check, higher Ratio λmax with MS and reference 588 nm between I and II ? State your choice using its label. I

* * *

- Tested on: ILM model substrate (silk granules)
- protocolConditions: 0.01 mg/mL in PBS pH 7.4; 632 nm (7a), 634 nm (7b, 7d), 635 nm (7c)
attributeMeasured: Ratio λmax with MS and reference 632-635 nm (%)

Examples with answers:
Retrieve Ratio λmax with MS and reference 632-635 nm measured for `CCCC[N+](C)(C)CCCNc1ccc(NCCC[N+](C)(C)CCCC)c2c1C(=O)c1ccccc1C2=O` and print it. 52

Retrieve Ratio λmax with MS and reference 632-635 nm measured for `CCCCCCCC[N+](C)(C)CCCNc1ccc(NCCC[N+](C)(C)CCCCCCCC)c2c1C(=O)c1ccccc1C2=O` and print it. 8

(a) CCCCCCCCCCCC[N+](C)(C)CCCNc1ccc(NCCC[N+](C)(C)CCCCCCCCCCCC)c2c1C(=O)c1ccccc1C2=O
(b) CCCCCCCCCC[N+](C)(C)CCCNc1ccc(NCCC[N+](C)(C)CCCCCCCCCC)c2c1C(=O)c1ccccc1C2=O
Quick check, higher Ratio λmax with MS and reference 632-635 nm between a and b ? State your choice using its label. b
(b: 17%, a: 8%)

* * *

- Tested on: ILM model substrate (silk granules)
- protocolConditions: 0.02 mg/mL in PBS pH 7.4; 632 nm (7a), 634 nm (7b, 7d), 635 nm (7c)
attributeMeasured: Ratio λmax with MS and reference 632-635 nm (%)

Retrieve Ratio λmax with MS and reference 632-635 nm measured for CCCCCCCC[N+](C)(C)CCCNc1ccc(NCCC[N+](C)(C)CCCCCCCC)c2c1C(=O)c1ccccc1C2=O [7b] and print it. 6

(A) CCCCCCCCCCCC[N+](C)(C)CCCNc1ccc(NCCC[N+](C)(C)CCCCCCCCCCCC)c2c1C(=O)c1ccccc1C2=O [7d]
(B) CCCC[N+](C)(C)CCCNc1ccc(NCCC[N+](C)(C)CCCC)c2c1C(=O)c1ccccc1C2=O [7a]
(C) CCCCCCCCCC[N+](C)(C)CCCNc1ccc(NCCC[N+](C)(C)CCCCCCCCCC)c2c1C(=O)c1ccccc1C2=O [7c]
Order the records so the highest Ratio λmax with MS and reference 632-635 nm appears first and the lowest last. Give the labels in the order specified. B, C, A
(B: 55%, C: 7%, A: 4%)

* * *

- Tested on: ILM model substrate (silk granules)
- protocolConditions: 0.04 mg/mL in PBS pH 7.4; 632 nm (7a), 634 nm (7b, 7d), 635 nm (7c)
attributeMeasured: Ratio λmax with MS and reference 632-635 nm (%)

Retrieve Ratio λmax with MS and reference 632-635 nm measured for `CCCCCCCC[N+](C)(C)CCCNc1ccc(NCCC[N+](C)(C)CCCCCCCC)c2c1C(=O)c1ccccc1C2=O` and print it. 8

(P) CCCC[N+](C)(C)CCCNc1ccc(NCCC[N+](C)(C)CCCC)c2c1C(=O)c1ccccc1C2=O
(Q) CCCCCCCCCCCC[N+](C)(C)CCCNc1ccc(NCCC[N+](C)(C)CCCCCCCCCCCC)c2c1C(=O)c1ccccc1C2=O
(R) CCCCCCCCCC[N+](C)(C)CCCNc1ccc(NCCC[N+](C)(C)CCCCCCCCCC)c2c1C(=O)c1ccccc1C2=O
Order the records so the highest Ratio λmax with MS and reference 632-635 nm appears first and the lowest last. Give the labels in the order specified. P, R, Q

* * *

- Test system: ILM model substrate (silk granules)
- protocolConditions: 0.08 mg/mL in PBS pH 7.4
attributeMeasured: Ratio λmax with MS and reference 588 nm (%)

(a) CCCCCCCC[N+](C)(C)CCCNc1ccc(NCCC[N+](C)(C)CCCCCCCC)c2c1C(=O)c1ccccc1C2=O [7b]
(b) CCCCCCCCCC[N+](C)(C)CCCNc1ccc(NCCC[N+](C)(C)CCCCCCCCCC)c2c1C(=O)c1ccccc1C2=O [7c]
(c) CCCC[N+](C)(C)CCCNc1ccc(NCCC[N+](C)(C)CCCC)c2c1C(=O)c1ccccc1C2=O [7a]
(d) CCCCCCCCCCCC[N+](C)(C)CCCNc1ccc(NCCC[N+](C)(C)CCCCCCCCCCCC)c2c1C(=O)c1ccccc1C2=O [7d]
Reorder: Ratio λmax with MS and reference 588 nm, max to min. Give the labels in the order specified. c, a, b, d
(c: 67%, a: 18%, b: 8%, d: 1%)

* * *

- Tested on: ILM model substrate (silk granules)
- protocolConditions: 0.16 mg/mL in PBS pH 7.4
attributeMeasured: Ratio λmax with MS and reference 588 nm (%)

Please report the measured Ratio λmax with MS and reference 588 nm for `CCCCCCCCCCCC[N+](C)(C)CCCNc1ccc(NCCC[N+](C)(C)CCCCCCCCCCCC)c2c1C(=O)c1ccccc1C2=O` tested on ILM model substrate (silk granules). 18

(I) CCCCCCCCCC[N+](C)(C)CCCNc1ccc(NCCC[N+](C)(C)CCCCCCCCCC)c2c1C(=O)c1ccccc1C2=O
(II) CCCCCCCC[N+](C)(C)CCCNc1ccc(NCCC[N+](C)(C)CCCCCCCC)c2c1C(=O)c1ccccc1C2=O
(III) CCCC[N+](C)(C)CCCNc1ccc(NCCC[N+](C)(C)CCCC)c2c1C(=O)c1ccccc1C2=O
Order the records so the highest Ratio λmax with MS and reference 588 nm appears first and the lowest last. Give the labels in the order specified. III, II, I
